measured.target: FSHR (Homo sapiens, UniProt P23945)
Construct: expressed in transfected cells; host or cells: CHO (Cho-FSHR-LUC-1-1-43)
Sequence (P23945 18-695): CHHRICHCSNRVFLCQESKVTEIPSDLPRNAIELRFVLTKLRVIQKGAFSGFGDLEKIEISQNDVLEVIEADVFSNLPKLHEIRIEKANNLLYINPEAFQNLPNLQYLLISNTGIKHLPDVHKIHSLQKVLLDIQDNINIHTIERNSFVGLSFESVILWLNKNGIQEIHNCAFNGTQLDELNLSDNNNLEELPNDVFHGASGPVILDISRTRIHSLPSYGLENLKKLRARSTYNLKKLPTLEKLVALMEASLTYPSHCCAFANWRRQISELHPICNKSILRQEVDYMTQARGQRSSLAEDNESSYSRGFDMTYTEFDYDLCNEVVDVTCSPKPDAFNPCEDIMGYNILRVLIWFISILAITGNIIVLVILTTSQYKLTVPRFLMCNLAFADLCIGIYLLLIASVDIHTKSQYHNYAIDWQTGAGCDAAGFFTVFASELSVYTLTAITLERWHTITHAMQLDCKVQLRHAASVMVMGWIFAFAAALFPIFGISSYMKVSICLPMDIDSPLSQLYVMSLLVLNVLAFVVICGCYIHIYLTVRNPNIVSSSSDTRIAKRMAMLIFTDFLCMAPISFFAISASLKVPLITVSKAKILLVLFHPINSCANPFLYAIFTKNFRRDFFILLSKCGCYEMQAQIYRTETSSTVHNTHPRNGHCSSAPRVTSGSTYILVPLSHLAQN
assay.summary: EC50 of cyclic AMP production in CHO FSHR cells + EC20 FSH (Assay A)
Format: cell-based
condition.info: CHO FSHR cells + EC20 FSH, cAMP HTRF; read-out: Assay A: EC50 of cyclic AMP production
List of EC50 values.
measurement.name: EC50

>  <molecule>
COc1cc2c(cc1C1CCCO1)-c1c(c(C(=O)N(C)C(C)(C)C)nn1-c1ccsc1)CO2 (stereo not shown)

>  <recorded.value>
100 to 1000 nM

$$$$
>  <molecule>
COc1cc2c(cc1-c1ccn(C)c1)-c1c(c(C(=O)N3CCN(C(C)=O)CC3)nn1-c1ccsc1)CO2

>  <recorded.value>
> 5000 nM

$$$$
>  <molecule>
CNC(=O)c1nn(-c2ccsc2)c2c1COc1cc(OC)c(-c3cn[nH]c3)cc1-2

>  <recorded.value>
1000 to 5000 nM

$$$$
>  <molecule>
COc1cc2c(cc1C=C(C)C)-c1c(c(C(=O)NCCN3CCOC3=O)nn1-c1ccsc1)CO2

>  <recorded.value>
100 to 1000 nM

$$$$

###

measured.target: follicle-stimulating hormone (FSH) receptor (Rattus norvegicus, UniProt P20395)
Construct: endogenous in cells; host or cells: primary rat granulosa cells
Sequence (P20395 18-692): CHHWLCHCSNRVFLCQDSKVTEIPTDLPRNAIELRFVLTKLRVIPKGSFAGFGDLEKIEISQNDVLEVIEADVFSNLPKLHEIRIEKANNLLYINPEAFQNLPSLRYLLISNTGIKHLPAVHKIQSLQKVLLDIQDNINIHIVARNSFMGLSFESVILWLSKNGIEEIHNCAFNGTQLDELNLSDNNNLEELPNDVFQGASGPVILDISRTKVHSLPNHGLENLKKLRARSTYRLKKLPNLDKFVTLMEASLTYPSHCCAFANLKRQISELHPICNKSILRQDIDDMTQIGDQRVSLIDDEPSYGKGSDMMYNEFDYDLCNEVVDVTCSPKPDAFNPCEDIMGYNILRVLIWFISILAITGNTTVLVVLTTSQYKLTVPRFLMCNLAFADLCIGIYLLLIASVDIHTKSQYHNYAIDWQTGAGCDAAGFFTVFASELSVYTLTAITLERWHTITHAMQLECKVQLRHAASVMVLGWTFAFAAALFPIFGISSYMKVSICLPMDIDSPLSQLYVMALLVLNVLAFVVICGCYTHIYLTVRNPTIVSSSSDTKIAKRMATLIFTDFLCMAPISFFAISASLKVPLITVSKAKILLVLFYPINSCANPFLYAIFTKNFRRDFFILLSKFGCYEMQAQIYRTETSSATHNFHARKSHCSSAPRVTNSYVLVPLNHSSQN
assay.summary: Rat granulosa EC50 FSH (Assay B)
Format: cell-based
condition.info: rat granulosa cells; read-out: Assay B: Rat granulosa EC50 FSH
# Lookup of reported EC50 keyed by entry

>  <compound>
COc1cc2c(cc1S(=O)(=O)C(C)C)-c1c(c(C(=O)N(C)C(C)(C)C)nn1-c1ccsc1)CO2 [Compound 79]

>  <EC50>
> 5000 nM

$$$$
>  <compound>
COC/C=C/c1cc2c(cc1OC)OCc1c(C(=O)N(C)C(C)(C)C)nn(-c3ccsc3)c1-2 [Compound 147]

>  <EC50>
100 to 1000 nM

$$$$
>  <compound>
COc1cc2c(cc1-c1ccn(C)c1)-c1c(c(C(=O)N3CCN(C)CC3(C)C)nn1-c1ccsc1)CO2 [Compound 160]

>  <EC50>
< 100 nM

$$$$
>  <compound>
COc1cc2c(cc1-c1cn(C)nn1)-c1c(c(C(=O)N(C)C(C)(C)C)nn1-c1ccsc1)CO2 [Compound 153]

>  <EC50>
< 100 nM

$$$$
>  <compound>
COc1cc2c(cc1C=C(C)C)-c1c(c(C(=O)N(C)C(C)(C)C)nn1-c1ccsc1)CO2 [Compound 6]

>  <EC50>
1000 to 5000 nM

$$$$
>  <compound>
[2H]C([2H])([2H])OCC(C)(C)N(C(=O)c1nn(-c2ccsc2)c2c1COc1cc(OC)c(CC(C)C)cc1-2)C([2H])([2H])[2H] [Compound 83]

>  <EC50>
100 to 1000 nM

$$$$
>  <compound>
[2H]C([2H])([2H])OCC1(N(C(=O)c2nn(-c3ccsc3)c3c2COc2cc(OC)c(CC(C)C)cc2-3)C([2H])([2H])[2H])COC1 [Compound 162]

>  <EC50>
100 to 1000 nM

$$$$
